target.system: canine TRPM8 (Canis lupus familiaris)
Construct: expressed in transfected cells
assay.protocol: In vitro canine TRPM8 functional assay (icilin-induced intracellular Ca2+, FLIPR/FDSS)
Type: cell-based
measurement.context: 0.200 μM compound; HEK293 cells stably expressing canine TRPM8; icilin challenge (~80% maximal response); read-out: % Inh. @ 0.200 μM
Where a name gives a salt, the structure may show the parent alone.
Overview of recorded inhibition at 0.2 µM for various molecules
Field: numeric (%). Do not append units.

Please review the following examples before continuing.
>  <molecule>
OCCCc1cc(-c2ccccc2C(F)(F)F)cc2nc(C3=NOC4(CCCCC4)C3)[nH]c12 [Cpd 22, hydrochloride]

>  <inhibition at 0.2 µM [%]>
103

$$$$
>  <molecule>
Fc1ccccc1-c1ccc2[nH]c(C3=NOC4(CCOCC4)C3)nc2c1 [Cpd 31, hydrochloride]

>  <inhibition at 0.2 µM [%]>
99

$$$$
>  <molecule>
Cc1cc(-c2ccccc2C(F)(F)F)cc2nc(C3=NOC4(CCOCC4)C3)[nH]c12 [Cpd 32, hydrochloride]

>  <inhibition at 0.2 µM [%]>
100

$$$$
>  <molecule>
Fc1cc(-c2ccccc2C(F)(F)F)cc2nc(C3=NOC4(CCCCC4)C3)[nH]c12 [Cpd 14, hydrochloride]

>  <inhibition at 0.2 µM [%]>
102

$$$$
>  <molecule>
Clc1ccccc1-c1ccc2[nH]c(C3=NOC4(CCOCC4)C3)nc2c1 [Cpd 40, hydrochloride]

>  <inhibition at 0.2 µM [%]>
98

$$$$
>  <molecule>
CC1(C)CCC2(CC1)CC(c1nc3cc(-c4ccccc4C(F)(F)F)cc(Cl)c3[nH]1)=NO2 [Cpd 41, hydrochloride]

>  <inhibition at 0.2 µM [%]>
92

$$$$
>  <molecule>
Fc1cccc(F)c1-c1cc(Cl)c2[nH]c(C3=NOC4(CCCCC4)C3)nc2c1 [Cpd 44, methanesulfonate]

>  <inhibition at 0.2 µM [%]>
100

$$$$
>  <molecule>
FC(F)(F)Oc1ccccc1-c1cc(C(F)(F)F)c2[nH]c(C3=NOC4(CCCCC4)C3)nc2c1 [Cpd 51, hydrochloride]

>  <inhibition at 0.2 µM [%]>
97

$$$$

Ask: Please tell me: inhibition at 0.2 µM of FC(F)(F)c1ccccc1-c1cnc2[nH]c(C3=NOC4(CCCCC4)C3)nc2c1 [Cpd 58, hydrochloride] , system canine TRPM8 (Canis lupus familiaris)?
Reply: 101

Ask: Please tell me: inhibition at 0.2 µM of Fc1ccccc1-c1ccc2[nH]c(C3=NOC4(CCCCC4)C3)nc2c1 [Cpd 23, trifluoroacetic acid salt] , system canine TRPM8 (Canis lupus familiaris)?
Reply: 103

----------
target.system: canine TRPM8 (Canis lupus familiaris)
assay.protocol: In vitro canine TRPM8 functional assay (icilin-induced intracellular Ca2+, FLIPR/FDSS)
measurement.context: HEK293 cells stably expressing canine TRPM8; icilin challenge; eight-point dose-response
Structures can show the parent of a compound that is named as a salt.
Overview of recorded IC50 for various molecules
Field: numeric (nM). Do not append units.

Please review the following examples before continuing.
>  <molecule>
Fc1ccccc1-c1ccc2[nH]c(C3=NOC4(CCOCC4)C3)nc2c1 [Cpd 31, hydrochloride]

>  <units.text>
nM

>  <IC50>
13.4

$$$$
>  <molecule>
FC(F)(F)c1ccccc1-c1cnc2[nH]c(C3=NOC4(CCCCC4)C3)nc2c1 [Cpd 58, hydrochloride]

>  <units.text>
nM

>  <IC50>
2

$$$$
>  <molecule>
Cc1cc(-c2ccccc2C(F)(F)F)cc2nc(C3=NOC4(CCCCC4)C3)[nH]c12 [Cpd 46, hydrochloride]

>  <units.text>
nM

>  <IC50>
1.8

$$$$

Ask: IC50 lookup needed for COCCCc1cc(-c2ccccc2C(F)(F)F)cc2nc(C3=NOC4(CCCCC4)C3)[nH]c12 [Cpd 52, hydrochloride] , thanks.
Reply: 1

----------
target.system: UniProt Q1A7N1
assay.protocol: In vitro canine TRPM8 functional assay (icilin-induced intracellular Ca2+, FLIPR/FDSS)
measurement.context: HEK293 cells stably expressing canine TRPM8; icilin challenge; eight-point dose-response
Structures can show the parent of a compound that is named as a salt.
Note to self: use Condition met only for IC50 readings below 3 nM; a reading exactly at 3 nM still gets Condition not met.

Reference set (2 entries):
>  <compound>
FC(F)(F)c1ccccc1-c1cc2nc(C3=NOC4(CCCCC4)C3)[nH]c2cn1 [Cpd 57, hydrochloride]

>  <class.assignment>
Condition met

$$$$
>  <compound>
Cc1c(-c2ccccc2C(F)(F)F)cc(Cl)c2[nH]c(C3=NOC4(CCCCC4)C3)nc12 [Cpd 55, hydrochloride]

>  <class.assignment>
Condition not met

$$$$

Ask: Below 3 nM on IC50? Entry `OC/C=C\c1cc(-c2ccccc2C(F)(F)F)cc2nc(C3=NOC4(CCCCC4)C3)[nH]c12`
Reply: Condition met

Ask: Below 3 nM on IC50? Entry CC1(C)CCC2(CC1)CC(c1nc3cc(-c4ccccc4C(F)(F)F)ccc3[nH]1)=NO2 [Cpd 36, hydrochloride]
Reply: Condition not met

Ask: Below 3 nM on IC50? Entry CC1(C)CCC2(CC1)CC(c1nc3cc(-c4ccccc4C(F)(F)F)cc(Cl)c3[nH]1)=NO2 [Cpd 41, hydrochloride]
Reply: Condition not met

Ask: Below 3 nM on IC50? Entry FC(F)(F)c1ccccc1-c1cc(Br)c2[nH]c(C3=NOC4(CCOCC4)C3)nc2c1 [Cpd 33, hydrochloride]
Reply: Condition met

Ask: Below 3 nM on IC50? Entry `FC(F)(F)Cc1ccccc1-c1ccc2[nH]c(C3=NOC4(CCCCC4)C3)nc2c1`
Reply: Condition met

----------
Overview of recorded inhibition at 0.2 µM for various compounds
target.system: canine TRPM8 (Canis lupus familiaris, UniProt Q1A7N1)
Construct: expressed in transfected cells
Sequence (Q1A7N1 1-1104): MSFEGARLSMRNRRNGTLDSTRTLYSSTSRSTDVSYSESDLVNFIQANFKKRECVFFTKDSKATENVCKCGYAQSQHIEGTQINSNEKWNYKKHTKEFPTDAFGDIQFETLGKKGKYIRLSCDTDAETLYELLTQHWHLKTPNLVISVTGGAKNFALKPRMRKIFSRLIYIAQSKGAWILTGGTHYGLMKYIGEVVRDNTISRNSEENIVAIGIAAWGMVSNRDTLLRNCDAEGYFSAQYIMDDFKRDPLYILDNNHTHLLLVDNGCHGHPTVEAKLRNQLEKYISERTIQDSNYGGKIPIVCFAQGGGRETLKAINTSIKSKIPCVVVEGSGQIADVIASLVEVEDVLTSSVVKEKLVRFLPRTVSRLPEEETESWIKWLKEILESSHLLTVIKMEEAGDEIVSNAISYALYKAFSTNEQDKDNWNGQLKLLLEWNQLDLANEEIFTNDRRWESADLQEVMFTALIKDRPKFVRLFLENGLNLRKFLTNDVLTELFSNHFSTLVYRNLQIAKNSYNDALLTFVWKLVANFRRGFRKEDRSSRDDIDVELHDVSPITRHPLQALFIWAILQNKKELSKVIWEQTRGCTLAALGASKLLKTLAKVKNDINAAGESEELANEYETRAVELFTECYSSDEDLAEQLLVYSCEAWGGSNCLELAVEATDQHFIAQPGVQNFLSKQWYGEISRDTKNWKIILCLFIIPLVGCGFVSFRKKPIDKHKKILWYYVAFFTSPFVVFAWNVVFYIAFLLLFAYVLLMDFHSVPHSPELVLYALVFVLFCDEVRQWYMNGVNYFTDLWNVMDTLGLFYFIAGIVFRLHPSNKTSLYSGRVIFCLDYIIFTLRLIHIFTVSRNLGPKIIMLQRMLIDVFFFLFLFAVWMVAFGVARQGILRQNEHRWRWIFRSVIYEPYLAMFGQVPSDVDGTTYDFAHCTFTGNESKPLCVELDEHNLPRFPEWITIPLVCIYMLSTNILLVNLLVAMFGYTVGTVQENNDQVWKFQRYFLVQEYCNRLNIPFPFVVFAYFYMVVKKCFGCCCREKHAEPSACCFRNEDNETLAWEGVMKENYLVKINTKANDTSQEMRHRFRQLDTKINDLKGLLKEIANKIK
assay.protocol: In vitro canine TRPM8 functional assay (icilin-induced intracellular Ca2+, FLIPR/FDSS)
Format: cell-based
measurement.context: 0.200 μM compound; HEK293 cells stably expressing canine TRPM8; icilin challenge (~80% maximal response); read-out: % Inh. @ 0.200 μM
Where a name gives a salt, the structure may show the parent alone.
Field: numeric (%). Do not append units.

>  <compound>
CC1C(c2nc3cc(-c4ccccc4C(F)(F)F)ccc3[nH]2)=NOC12CCCCC2 (centres unmarked) [Cpd 15, hydrochloride]

>  <inhibition at 0.2 µM, %>
102

$$$$
>  <compound>
Cc1c(-c2ccccc2C(F)(F)F)ccc2[nH]c(C3=NOC4(CCCCC4)C3)nc12 [Cpd 24, hydrochloride]

>  <inhibition at 0.2 µM, %>
103

$$$$
>  <compound>
FC(F)(F)c1ccccc1-c1cc(Br)c2[nH]c(C3=NOC4(CCOCC4)C3)nc2c1 [Cpd 33, hydrochloride]

>  <inhibition at 0.2 µM, %>
100

$$$$
>  <compound>
FC(F)(F)c1ccccc1-c1ccc2[nH]c(C3=NC4(CCOCC4)CO3)nc2c1

>  <inhibition at 0.2 µM, %>
71

$$$$
>  <compound>
FC(F)(F)c1ccccc1-c1ccc2[nH]c(C3=NCC4(CCCCC4)O3)nc2c1

>  <inhibition at 0.2 µM, %>
84

$$$$
>  <compound>
CC(C)(O)CCc1cc(-c2ccccc2C(F)(F)F)cc2nc(C3=NOC4(CCCCC4)C3)[nH]c12

>  <inhibition at 0.2 µM, %>
99

$$$$
>  <compound>
FC(F)(F)Oc1ccccc1-c1ccc2nc(C3=NC4(CCCCC4)CO3)[nH]c2c1

>  <inhibition at 0.2 µM, %>
106

$$$$

Next compound, please.
Ask: Please tell me: inhibition at 0.2 µM of Cc1cc(-c2ccccc2C(F)(F)F)cc2nc(C3=NOC4(CCCCC4)C3)[nH]c12 [Cpd 46, hydrochloride] , system canine TRPM8 (Canis lupus familiaris, UniProt Q1A7N1)?
Reply: 97

----------
target.system: canine TRPM8 (Canis lupus familiaris)
Construct: expressed in transfected cells
assay.protocol: In vitro canine TRPM8 functional assay (icilin-induced intracellular Ca2+, FLIPR/FDSS);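 further: intracellular Ca2+ tracked with a Ca2+-sensitive fluorescent dye, compound applied 5 min before icilin was added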
Type: cell-based
measurement.context: 0.200 μM compound; HEK293 cells stably expressing canine TRPM8; icilin challenge (~80% maximal response); read-out: % Inh. @ 0.200 μM
Structures can show the parent of a compound that is named as a salt.
Overview of recorded inhibition at 0.2 µM for various compounds

Please review the following examples before continuing.
>  <compound>
Cc1cc(-c2ccccc2OC(F)F)cc2nc(C3=NOC4(CCCCC4)C3)[nH]c12 [Cpd 20, hydrochloride]

>  <endpoint.name>
inhibition at 0.2 µM

>  <assay.result>
103%

$$$$
>  <compound>
Fc1cccc(F)c1-c1ccc2[nH]c(C3=NOC4(CCOCC4)C3)nc2c1 [Cpd 38, hydrochloride]

>  <endpoint.name>
inhibition at 0.2 µM

>  <assay.result>
99%

$$$$
>  <compound>
CC1(C)CCC2(CC1)CC(c1nc3cc(-c4ccccc4C(F)(F)F)cc(C(F)(F)F)c3[nH]1)=NO2 [Cpd 39, hydrochloride]

>  <endpoint.name>
inhibition at 0.2 µM

>  <assay.result>
99%

$$$$
>  <compound>
Cc1c(-c2ccccc2C(F)(F)F)cc(Cl)c2[nH]c(C3=NOC4(CCCCC4)C3)nc12 [Cpd 55, hydrochloride]

>  <endpoint.name>
inhibition at 0.2 µM

>  <assay.result>
97%

$$$$

Ask: inhibition at 0.2 µM lookup needed for `FC(F)(F)c1ccccc1-c1ccc2[nH]c(C3=NOC4(CCOCC4)C3)nc2c1` , thanks.
Reply: 101%

Ask: inhibition at 0.2 µM lookup needed for Fc1ccccc1-c1cc(Cl)c2[nH]c(C3=NOC4(CCCCC4)C3)nc2c1 [Cpd 49, methanesulfonate] , thanks.
Reply: 101%

Ask: inhibition at 0.2 µM lookup needed for Cc1cc(-c2ccccc2F)cc2nc(C3=NOC4(CCCCC4)C3)[nH]c12 [Cpd 47, hydrochloride] , thanks.
Reply: 97%

Taken from patent US8232409B2.
